- System: NCI-H23
- protocol description: NCI tumour cell line growth inhibition, 48 h
Active and inactive are the calls of the source. No stated cut-off is given here; in the data, active = GI50 up to about 1.1 µM and inactive = higher.
Labels: active, inactive

                                    molecule  group_label
 0  O=[N+]([O-])c1cc(-c2nc(-c3ccccc3)c(-c3ccccc3)[nH]2)c(O)c([N+](=O)[O-])c1     inactive
 1  O=[N+]([O-])c1ccc(S(=O)(=O)n2c3ccc(Br)cc3c3nc4ccccc4nc32)cc1     inactive
 2  c1ccc2nn(C3CCCO3)nc2c1 (stereo not drawn)     inactive
 3  c1ccc(COC2(OCc3ccccc3)CC3OC2C2NN=NC32)cc1 (stereo not drawn)     inactive
 4  Fc1ccc(C(=C2CCN(CCc3ccc4[nH]c(=S)[nH]c4c3)CC2)c2ccc(F)cc2)cc1     inactive
 5  CC(C)(NC(=O)OCc1ccccc1)C(=O)OC(=O)C(C)(C)NC(=O)OCc1ccccc1     inactive
 6      CSC1=C(C(=O)Nc2ccc(Cl)cc2)C(N)=NC1=O     inactive
 7  CC(NCCS(=O)(=O)O)C(=O)O (stereo not drawn)     inactive
 8  Cc1cnc(NCCCN(C)C)c2c1[nH]c1ccc3cc(O)ccc3c12       active
 9  O=C1Nc2ccccc2C(=O)/C1=C/NC(=S)NCc1ccccc1     inactive
10                       CC(C)CCC(=O)c1ccoc1     inactive
11       OCCCCOC(c1ccccc1)(c1ccccc1)c1ccccc1     inactive
12  CCOC(=O)CC1(O)CCCCC1(Sc1ccc(C)cc1)Sc1ccc(C)cc1 (stereo not drawn)     inactive
13  COC(=O)[C@H](CC(C)C)NC(=O)[C@H](Cc1ccccc1)N1CC2C=CC1C2 (stereo partly drawn)     inactive
14                Nc1c(O)c(C(=O)O)cc2ccccc12     inactive
15  O=C(O)CNS(=O)(=O)c1ccc(NC(=O)Nc2ccccc2)cc1     inactive
16         CC1(C)COC(/C=C/C2=NC(C)(C)CO2)=N1     inactive
17  Cc1cccc2c1C(=O)OC2(C)c1cccc2ccccc12 (stereo not drawn)     inactive
18  COC(=O)c1cc(-c2ccc(-c3ccc(O)cc3)cc2)cc(-c2ccc(-c3ccc(O)cc3)cc2)c1     inactive
19          O=C1c2ccccc2C(=O)N1C(=S)c1ccccc1     inactive
20  CC(=O)NC(CCCCN)C(=O)NCc1ccccc1 (stereo not drawn)     inactive
21  CC(=O)N1c2ccccc2C(C)C1c1[nH]c2ccccc2c1C (stereo not drawn)     inactive
22         N#Cc1[nH]c(=O)n(-c2ccc(Cl)cc2)c1N     inactive

These entries and their values trace back to ChEMBL document CHEMBL1201862.
